- tested on: T1, human LAG3-His tagged recombinant protein (human)
- T1 construct: also called human LAG3-His protein; recombinant human LAG3
- T1 sequence (P18627 23-450): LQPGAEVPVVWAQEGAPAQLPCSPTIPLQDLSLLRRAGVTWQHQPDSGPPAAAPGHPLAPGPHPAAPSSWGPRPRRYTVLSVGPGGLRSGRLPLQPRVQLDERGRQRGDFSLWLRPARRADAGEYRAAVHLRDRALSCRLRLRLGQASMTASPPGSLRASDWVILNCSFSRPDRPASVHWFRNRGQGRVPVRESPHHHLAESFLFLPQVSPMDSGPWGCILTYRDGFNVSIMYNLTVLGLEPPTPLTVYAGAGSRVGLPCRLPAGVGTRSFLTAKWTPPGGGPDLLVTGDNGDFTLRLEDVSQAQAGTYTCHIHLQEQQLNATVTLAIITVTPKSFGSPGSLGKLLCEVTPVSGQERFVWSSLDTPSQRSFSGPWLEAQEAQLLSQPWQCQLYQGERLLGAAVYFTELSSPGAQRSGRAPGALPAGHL
- method notes: SPR, Biacore T200; antibody captured, human LAG3-His as analyte, 1:1 Langmuir fit; n = 2
Listing of recorded pKd by entry.
Quick note: pKd means taking -log10 of the concentration in moles per liter.

Consider the reported pKd for these binders:
binder	pKd
ADI-12126 (Q1E, M57A, M115L) IgG4 S228P/Kappa (antibody, V domains shown) VH: EVQLVQSGAEVKKPGASVKVSCKASGYTFTGYYMHWVRQAPGQGLEWMGWINANSGATNYAQKFQGRVTMTRDTSISTAYMELSRLRSDDTAVYYCARDIYDSSDQLNVWGQGTLVTVSS VL: EIVLTQSPATLSLSPGERATLSCRASQSVSSYLAWYQQKPGQAPRLLIYDASNRATGIPARFSGSGSGTDFTLTISSLEPEDFAVYYCQQASIWPLTFGGGTKVEIKR	10.89
ADI-12126 (Q1E, M57V, M115L) IgG4 S228P/Kappa (antibody, V domains shown) VH: EVQLVQSGAEVKKPGASVKVSCKASGYTFTGYYMHWVRQAPGQGLEWMGWINANSGVTNYAQKFQGRVTMTRDTSISTAYMELSRLRSDDTAVYYCARDIYDSSDQLNVWGQGTLVTVSS VL: EIVLTQSPATLSLSPGERATLSCRASQSVSSYLAWYQQKPGQAPRLLIYDASNRATGIPARFSGSGSGTDFTLTISSLEPEDFAVYYCQQASIWPLTFGGGTKVEIKR	9.60
ADI-12126 (Q1E, M57Y, M115L) IgG4 S228P/Kappa (antibody, V domains shown) VH: EVQLVQSGAEVKKPGASVKVSCKASGYTFTGYYMHWVRQAPGQGLEWMGWINANSGYTNYAQKFQGRVTMTRDTSISTAYMELSRLRSDDTAVYYCARDIYDSSDQLNVWGQGTLVTVSS VL: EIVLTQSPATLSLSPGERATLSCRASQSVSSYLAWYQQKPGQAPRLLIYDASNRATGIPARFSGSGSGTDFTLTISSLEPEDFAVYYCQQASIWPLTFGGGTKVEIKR	10.47

Let us examine a further case.
Can you share its pKd? I mean this binder: ADI-12126 (Q1E, M57S, M115L) IgG4 S228P/Kappa (antibody, V domains shown) VH: EVQLVQSGAEVKKPGASVKVSCKASGYTFTGYYMHWVRQAPGQGLEWMGWINANSGSTNYAQKFQGRVTMTRDTSISTAYMELSRLRSDDTAVYYCARDIYDSSDQLNVWGQGTLVTVSS VL: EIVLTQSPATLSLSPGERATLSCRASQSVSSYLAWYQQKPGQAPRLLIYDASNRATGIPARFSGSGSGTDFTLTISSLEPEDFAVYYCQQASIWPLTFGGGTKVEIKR 9.92
